Would you kindly list melting point for each of these compounds?

// query What does the record list as melting point for CCNC(=S)NS(=O)(=O)c1ccc(-n2nc(C(F)(F)F)cc2-c2ccc(C)cc2)cc1 [Compound 1a] ?
// result 215 to 218 °C

// query Another compound: Cc1ccc(-c2cc(C(F)(F)F)nn2-c2ccc(S(=O)(=O)NC(=S)Nc3ccc([N+](=O)[O-])cc3)cc2)cc1 [Compound 1d]
// result 245 to 248 °C

// query Another compound: CCN1C(=O)CS/C1=N\S(=O)(=O)c1ccc(-n2nc(C(F)(F)F)cc2-c2ccc(C)cc2)cc1 [Compound 2a]
// result 282 °C

// query Another compound: Cc1ccc(-c2cc(C(F)(F)F)nn2-c2ccc(S(=O)(=O)/N=C3\SCC(=O)N3c3ccc([N+](=O)[O-])cc3)cc2)cc1 [Compound 2d]
// result 270 to 272 °C

// query Another compound: Cc1ccc(-c2cc(C(F)(F)F)nn2-c2ccc(S(=O)(=O)/N=C3\SCC(=O)N3c3ccc(C(F)(F)F)cc3)cc2)cc1 [Compound 2e]
// result 234 to 235 °C

// query Another compound: Cc1ccc(-c2cc(C(F)(F)F)nn2-c2ccc(S(=O)(=O)NC(=S)Nc3ccccc3)cc2)cc1 [Compound 1b]
// result 251 to 252 °C

// query Another compound: Cc1ccc(-c2cc(C(F)(F)F)nn2-c2ccc(S(=O)(=O)NC(=S)Nc3ccc(C(F)(F)F)cc3)cc2)cc1 [Compound 1e]
// result 228 to 231 °C

// query Another compound: Cc1ccc(-c2cc(C(F)(F)F)nn2-c2ccc(S(=O)(=O)/N=C3\SCC(=O)N3Cc3ccccc3)cc2)cc1 [Compound 2c]
// result 250 °C

// query Another compound: Cc1ccc(-c2cc(C(F)(F)F)nn2-c2ccc(S(=O)(=O)NC(=S)NCc3ccccc3)cc2)cc1 [Compound 1c]
// result 237 to 240 °C

The values you see were collected from paper PMC6269910.
